Hello, the source for this data is ChEMBL document CHEMBL1146773, in case you need it.

Each record here notes measured Inhibition.
- Test system: Mus musculus
- measurement.description: In vivo anti-inflammatory activity determined by inhibition of oxazolone-induced allergic contact dermatitis (ACD) in mouse up on tropical application
- Assay type: functional
- Design: concentration or dose not given beside the values

molecule | Inhibition [%]
CC1(C)[C@@H](O)CC[C@]2(C)[C@H]3CC[C@@H]4[C@@H](C(N)CCc5ccccc5)CC[C@@]4(C)[C@@H]3CC[C@@H]12 (stereo in doubt; 13A) | 30
C=C(CCc1ccccc1)[C@H]1CC[C@]2(C)[C@@H]1CC[C@H]1[C@H]2CC[C@H]2C(C)(C)[C@@H](O)CC[C@]12C | 36
CC1(C)[C@@H](O)CC[C@]2(C)[C@H]3CC[C@@H]4[C@@H](C(O)CCc5ccccc5)CC[C@@]4(C)[C@@H]3CC[C@@H]12 (stereo in doubt; 11B) | 14
CC(NCc1ccccc1)[C@H]1CC[C@]2(C)[C@@H]1CC[C@H]1[C@H]2CC[C@H]2C(C)(C)[C@@H](O)CC[C@]12C (stereo in doubt; 4bA) | 28
